- Tested on: male C57BL/6N mouse
- Method: Effect on glucose tolerance of normal mouse (oral glucose loading)
- Type: in vivo
- Condition info: 2 h, 3 mg/kg oral, 30 min before glucose 2 g/kg, AUC0-120, 0.5% MC = 100%, NVP DPP728 10 mg/kg = 0%, lower = better, read-out: Improvement degree of glucose tolerance
Where a name gives a salt, the structure may show the parent alone.
Exercise: for every item that follows, state its recorded response vs control in vivo at 3 mg/kg.
One number for each entry, in %.

Example compounds with recorded response vs control in vivo at 3 mg/kg:
# Compound, Assay target, Readout units, response vs control in vivo at 3 mg/kg
measured = [
    ("CC#CCn1c(N2CCNCC2)nc2c1c(=O)n(C)c(=O)n2C", "male C57BL/6N mouse", "%", 0.5),
    ("C=Cc1ccccc1-n1c(N2CCNCC2)nc2c1c(=O)n(C)c(=O)n2C [Example 147, trifluoroacetate]", "male C57BL/6N mouse", "%", 13),
    ("COc1ccccc1-n1c(N2CCNCC2)nc2c1c(=O)n(C)c(=O)n2C [Example 123, trifluoroacetate]", "male C57BL/6N mouse", "%", 17.9),
    ("CC#CCn1c(N2CCNCC2)nc2c1c(=O)n(C)c(=O)n2CCOCC [Example 266, trifluoroacetate]", "male C57BL/6N mouse", "%", -2.3),
    ("CC#CCn1c(N2CCNCC2)nc2c1c(=O)n(C)c(=O)n2CC [Example 216, trifluoroacetate]", "male C57BL/6N mouse", "%", -5),
    ("CC#CCn1c(N2CCNCC2)nc2c1c(=O)n(C)c(=O)n2C1CCNC1=O (stereo not shown) [Example 284, hydrochloride]", "male C57BL/6N mouse", "%", 11.3),
]

Next, consider the following compound.
# compound CC#CCn1c(N2CCNCC2)nc2c1c(=O)n(C)c(=O)n2C(C(=O)OC)c1ccccc1 (stereo not shown) [Example 240, trifluoroacetate] ; its response vs control in vivo at 3 mg/kg = -2.8

====

Kindly supply the reported response vs control in vivo at 3 mg/kg values for the records listed here.
- Tested on: male C57BL/6N mouse
- Method: Effect on glucose tolerance of normal mouse (oral glucose loading)
- Format: in vivo
- Condition info: 2 h, 3 mg/kg oral, 30 min before glucose 2 g/kg, AUC0-120, 0.5% MC = 100%, NVP DPP728 10 mg/kg = 0%, lower = better, read-out: Improvement degree of glucose tolerance
Counter-ions that a name gives are not always drawn.
Answers are plain numbers, in %.

Some compounds with recorded response vs control in vivo at 3 mg/kg:
# Compound, Assay target, Readout units, response vs control in vivo at 3 mg/kg
measured = [
    ("CC#CCn1c(=O)c2c(nc(N3CCNCC3)n2CC#CC)n(C)c1=O [Example 20, trifluoroacetate]", "male C57BL/6N mouse", "%", 5),
    ("CC#CCn1c(N2CCNCC2)nc2c1c(=O)n(CC#N)c(=O)n2C [Example 21, trifluoroacetate]", "male C57BL/6N mouse", "%", 4.8),
    ("CC#CCn1c(N2CCNCC2)nc2c1c(=O)[nH]c(=O)n2CCOCC [Example 321, trifluoroacetate]", "male C57BL/6N mouse", "%", 16.9),
]

In the following, a different compound is considered.
response vs control in vivo at 3 mg/kg on male C57BL/6N mouse for C#CCn1c(=O)c2c(nc(N3CCNCC3)n2CC#CC)n(C)c1=O [Example 19, trifluoroacetate] is -13.1
